Test system: SF-539 CNS
Test: NCI-60 one-dose screen, 48 h (100 = growth as untreated, 0 = no growth, -100 = all killed)
Conditions: 10 µM unless noted
The panel holds about 83,000 compounds, 20% with a hit somewhere; the sample as a whole holds those more often.
MEASURED_ATTRIBUTE: growth (%)
State just the number; it will be interpreted in %.

What value of measured growth is listed for "COc1ccc(NC(=O)c2ccc(NC3=C(c4ccc(Cl)cc4)C(=O)NC3=O)cc2)cc1" ?
92.4

Also check "COc1cccc(/C=C/C(=O)/C=C(/C=C/c2cccc(OC)c2OC)OB(F)F)c1OC"
57.7

Also check "O=c1c2cccc3c(N4CCOCC4)ccc(c32)c2nc3ccccc3n12"
90.5

Also check "O=[N+]([O-])c1ccc(Oc2cccc3c(Oc4ccc([N+](=O)[O-])cc4[N+](=O)[O-])cccc23)c([N+](=O)[O-])c1"
96.3

Also check "CCCCCCCCCCCCCC[n+]1ccc2c(C)c3c(c(C)c2c1)c1cc(O)ccc1n3CC"
-83.9

Also check "COC(=O)[C@H](C)NC(=O)c1ccc(NC(=O)c2[nH]c(C)c(Cl)c2Cl)c(OCCN)c1"
101

Also check "COc1cc(C(=O)n2nc(NCCCc3ccccc3)c3cc(N)ccc32)cc(OC)c1OC"
93.1

Also check "C=C(C)[C@@H]1CC[C@]2(COC(=O)c3cccnc3)CC[C@]3(C)[C@H](CC[C@@H]4[C@@]5(C)CCCN(C(=O)c6cccnc6)C(C)(C)[C@@H]5CC[C@]43C)[C@@H]12"
46.4
